# credit: patent US20260193180A1

Please provide measured activity at 1.25 µM for the entries that follow.
- Tested on: U2OS cell line stabling expressing RFP-eGFP-hLC3b
- Measurement description: Tandem reporter assay (autophagic flux), RFP-only puncta (autolysosomes)
- Type: cell-based
- Run conditions: Homo sapiens, 1.25 μM, average of two runs, read-out: Activity (Autolysosome % DMSO activity)
Where a name gives a salt, the structure may show the parent alone.

Prompt: GET /values?readout=activity at 1.25 µM&system=U2OS cell line stabling expressing RFP-eGFP-hLC3b&item= CCOc1ccc(C#N)cc1CCN1CCC[C@H](N)C1 [Compound 83, hydrochloride]
Completion: 200 to 250%

Prompt: For the record NC1CCN(Cc2ccc(OCC3CC3)c(Cl)c2)CC1 [Compound 81, hydrochloride] , what value of activity at 1.25 µM is listed for U2OS cell line stabling expressing RFP-eGFP-hLC3b?
Completion: 150 to 200%

Prompt: Short answer please: activity at 1.25 µM, U2OS cell line stabling expressing RFP-eGFP-hLC3b, entry NC1CCN(Cc2cc(Cl)c(OCC3CC3)c(Cl)c2)CC1 [Compound 98, hydrochloride]
Completion: 150 to 200%

Prompt: Which activity at 1.25 µM is reported with U2OS cell line stabling expressing RFP-eGFP-hLC3b for this entry: N[C@@H]1CCCN(CCc2ccc(OCC3CC3)c(Cl)c2)C1 [Compound 80, formate salt] ?
Completion: 250 to 300%

Prompt: # get_value(readout= activity at 1.25 µM, system= U2OS cell line stabling expressing RFP-eGFP-hLC3b) for N[C@@H]1CCN(CCc2ccc(OCC3CC3)c(Cl)c2)C1 [Compound 99, hydrochloride]
Completion: 150 to 200%

Prompt: # returns recorded activity at 1.25 µM (system: U2OS cell line stabling expressing RFP-eGFP-hLC3b) for CCOc1ccc(C#N)cc1CCN1CC[C@H](N)C1 [Compound 86, hydrochloride]
Completion: 150 to 200%

Prompt: What measured activity at 1.25 µM is associated with N[C@H]1CCN(CCc2ccc(OCC3CC3)c(Cl)c2)C1 [Compound 100, hydrochloride] on U2OS cell line stabling expressing RFP-eGFP-hLC3b?
Completion: 150 to 200%

Prompt: # query: activity at 1.25 µM | item CCOc1ccc(CCN2CC[C@@H](N)C2)cc1F [Compound 88, hydrochloride] | system: U2OS cell line stabling expressing RFP-eGFP-hLC3b
Completion: 150 to 200%

Prompt: activity at 1.25 µM of CCOc1ccc(C#N)cc1CCN1CC[C@@H](N)C1 [Compound 87, hydrochloride] on U2OS cell line stabling expressing RFP-eGFP-hLC3b?
Completion: 150 to 200%

Prompt: I'm curious: which activity at 1.25 µM was measured for COCCOc1c(Cl)cc(CN2CCC(N)CC2)cc1Cl [Compound 94, hydrochloride] tested on U2OS cell line stabling expressing RFP-eGFP-hLC3b?
Completion: 150 to 200%

Prompt: Notebook entry, U2OS cell line stabling expressing RFP-eGFP-hLC3b assay: activity at 1.25 µM of N[C@H]1CCCN(CCc2cc(Cl)c(OCC3CC3)c(Cl)c2)C1 [Compound 74, hydrochloride] = ?
Completion: > 300%

Prompt: Notebook entry, U2OS cell line stabling expressing RFP-eGFP-hLC3b assay: activity at 1.25 µM of COCCOc1ccc(CN2CCC(N)CC2)cc1Cl [Compound 95, hydrochloride] = ?
Completion: 200 to 250%

Prompt: Provide the documented activity at 1.25 µM with U2OS cell line stabling expressing RFP-eGFP-hLC3b as the system for COCCOc1ccc(CCN2CCC[C@@H](N)C2)cc1Cl [Compound 89, hydrochloride]
Completion: 150 to 200%

Prompt: Please provide the recorded activity at 1.25 µM for CCOc1ccc(CN2CCC(N)CC2)cc1Cl [Compound 75, hydrochloride] , tested on U2OS cell line stabling expressing RFP-eGFP-hLC3b.
Completion: 200 to 250%

Prompt: Give the reported activity at 1.25 µM for CCOc1c(Cl)cc(CN2CCC(N)CC2)cc1Cl [Compound 90, hydrochloride] (system: U2OS cell line stabling expressing RFP-eGFP-hLC3b).
Completion: 200 to 250%

###

- System: U2OS cell line stabling expressing RFP-eGFP-hLC3b
- Measurement description: Tandem reporter assay (autophagic flux), RFP-only puncta (autolysosomes)
- Assay type: cell-based
- Run conditions: Homo sapiens, 1.25 μM, average of two runs, read-out: Activity (Autolysosome % DMSO activity)
- Method: Selected compounds of this invention were also assessed for their ability to stimulate autophagy using a U2OS cell line stabling expressing RFP-eGFP-hLC3b (a tandem reporter cell line). This assay is further described in WO 2023/089074. LC3b is a protein found in the membrane of autophagosomes which has been used to generate genetic reporters of autophagy in cells. […]
Counter-ions that a name gives are not always drawn.
Readout kind: activity at 1.25 µM

Prompt: What measured activity at 1.25 µM goes with CCOc1ccc(C#N)cc1CCN1CCC[C@@H](N)C1 [Compound 84, hydrochloride] ?
Completion: 200 to 250%

Prompt: Can you look up the measured activity at 1.25 µM of N[C@@H]1CCN(Cc2cc(Cl)c(OCC3CC3)c(Cl)c2)C1 [Compound 73, hydrochloride] for me?
Completion: 250 to 300%

Prompt: What measured activity at 1.25 µM goes with N[C@H]1CCN(Cc2cc(Cl)c(OCC3CC3)c(Cl)c2)C1 [Compound 77, hydrochloride] ?
Completion: 250 to 300%

Prompt: Which activity at 1.25 µM reading was recorded for the molecule N[C@H]1CCCN(CCc2ccc(OCC3CC3)c(Cl)c2)C1 [Compound 79, formate salt] ?
Completion: 250 to 300%

Prompt: Value lookup for activity at 1.25 µM; key = N[C@@H]1CCCN(Cc2cc(Cl)c(OCC3CC3)c(Cl)c2)C1 [Compound 97, hydrochloride]
Completion: 150 to 200%

Prompt: Consider the molecule shown here: N[C@@H]1CCCN(CCc2cc(Cl)c(OCC3CC3)c(Cl)c2)C1 [Compound 78, hydrochloride] What is its recorded activity at 1.25 µM?
Completion: 200 to 250%

Prompt: GET /values?readout=activity at 1.25 µM&item= N[C@H]1CCCN(Cc2cc(Cl)c(OCC3CC3)c(Cl)c2)C1 [Compound 96, hydrochloride]
Completion: 200 to 250%

Prompt: Record request: activity at 1.25 µM value, item CCOc1ccc(CN2CCC[C@@H](N)C2)cc1Cl [Compound 93, hydrochloride]
Completion: 150 to 200%

###

- System: Human osteosarcoma U2OS cells
- Measurement description: Acidic vesicle formation (lysosome/autolysosome staining, LysoView 633 / LysoTracker Deep Red), stimulation of autophagy
- Type: cell-based
- Run conditions: 10 μM, 24 hours, read-out: increase in acidic vesicle formation over the DMSO-treated control
Where a name gives a salt, the structure may show the parent alone.
Record form. Attribute: activation at 10 µM. Fill in for each entry.

Prompt: Give recorded activation at 10 µM with Human osteosarcoma U2OS cells for the following compound: CCOc1ccc(Cl)cc1CCN1CCC[C@@H](CN)C1 [Compound 45, hydrochloride]
Completion: ≥ 25%

Prompt: Field: activation at 10 µM (Human osteosarcoma U2OS cells). Entry: CCOc1ccc(Cl)cc1CN1CCC[C@@H](CN)C1 [Compound 7, hydrochloride]
Completion: ≥ 25%

Prompt: Test system Human osteosarcoma U2OS cells; read-out activation at 10 µM; what value for CCOc1ccc(Cl)cc1CN1CCC[C@@H](N)C1 [Compound 15, hydrochloride] ?
Completion: ≥ 25%

Prompt: Query for Human osteosarcoma U2OS cells: what activation at 10 µM does the record show for NC[C@H]1CCN(Cc2cc(Cl)ccc2OCCO)C1 [Compound 24, hydrochloride] ?
Completion: ≥ 25%

Prompt: Value wanted: activation at 10 µM (Human osteosarcoma U2OS cells) of entry CCOc1ccc(Cl)cc1CN1CC(CN)C1 [Compound 17, hydrochloride]
Completion: ≥ 25%

Prompt: # get_value(readout= activation at 10 µM, system= Human osteosarcoma U2OS cells) for CCOc1ccc(Cl)cc1CN1CCO[C@@H](CN)C1 [Compound 28, hydrochloride]
Completion: ≥ 25%

Prompt: Request: activation at 10 µM, test system Human osteosarcoma U2OS cells, entry CCOc1ccc(Cl)cc1CN1CC[C@@H](CN(C)C)C1 [Compound 50]
Completion: ≥ 25%

Prompt: Recorded activation at 10 µM for CCOc1ccc(Cl)cc1CN1CCN(CC)CC1 [Compound 10] with Human osteosarcoma U2OS cells, please?
Completion: ≥ 25%

Prompt: Request - read-out activation at 10 µM | tested on Human osteosarcoma U2OS cells | compound NC[C@@H]1CCN(CCc2cc(Cl)cc3c2OCO3)C1 [Compound 33, hydrochloride]
Completion: ≥ 25%
